assay: NS1 protein of Zika virus - qHTS assay to identify small molecule inhibitors in human HEK 293 cells (AID 1347053); settings: HEK293 ZIKV MR766 infection, NS1 TR-FRET, 24 h; series mostly up to 46.1 µM; further: nearly all actives have a fitted effect of over 55% in size
Results filed as inconclusive are left out. The source made the active and inactive calls. The call rests on the fitted dose curve; in most records, active means well fitted inhibition curve with a large enough effect; inconclusive means small, poorly fitted or top-dose-only effect; inactive means no such curve, though single readings can be large or run the other way.
Choose the fitting class; nothing outside active, inactive is accepted.

Worked examples follow.
{"compound": "C=C1[C@H](n2cnc3c(=O)[nH]c(N)nc32)C[C@H](O)[C@H]1CO", "label.value": "inactive"}
{"compound": "COc1ccc(-c2cc(=O)c3c(O)cc(O[C@@H]4O[C@H](CO[C@@H]5O[C@@H](C)[C@H](O)[C@@H](O)[C@@H]5O)[C@@H](O)[C@H](O)[C@@H]4O)cc3o2)cc1O", "label.value": "inactive"}
{"compound": "CC1=C(CC(=O)O)c2cc(F)ccc2C1=Cc1ccc(S(C)=O)cc1 (configuration not stated)", "label.value": "inactive"}

## Input Name the outcome recorded for CN1CCN2c3ncccc3Cc3ccccc3C2C1 (configuration not stated) in the assay.
## Output inactive

## Input Entry CCNC(=O)[C@H]1O[C@@H](n2cnc3c(N)nc(NCCc4ccc(CCC(=O)O)cc4)nc32)[C@H](O)[C@H]1O please
## Output inactive

## Input Entry COc1cc([C@H]2Oc3cc([C@H]4Oc5cc(O)cc(O)c5C(=O)[C@H]4O)ccc3O[C@H]2CO)ccc1O please
## Output inactive

## Input Entry CC(C)(OCc1nn(Cc2ccccc2)c2ccccc12)C(=O)O please
## Output inactive

## Input Entry CN(C)c1ccccc1CN1CCCN(Cc2ccccc2N(C)C)C1c1ccncc1 please
## Output active

## Input Entry OC[C@H]1O[C@@H](Oc2ccc(O)cc2)[C@H](O)[C@@H](O)[C@H]1O please
## Output inactive

## Input Entry C[C@H]1[C@H](O)O[C@@H]2O[C@@]3(C)CC[C@@H]4[C@H](C)CC[C@@H]1[C@@]24OO3 please
## Output active

* * *

experiment: qHTS assay for measurement of the activity of small molecule inhibitors on Zika virus induced Caspase-3 activity in human iPSC derived neural progenitor cells (hNPCs) (AID 1224857); details: hNPCs ZIKV-induced caspase-3/7, Caspase-Glo luminescence, 6 h; series mostly up to 45.7 µM; further: nearly all actives have a fitted effect of over 65% in size
Records with an inconclusive call do not appear. Activity calls are given as the source filed them. Calls follow the shape of the dose curve; as a rule, active = well fitted inhibition curve with a large enough effect; inconclusive = small, poorly fitted or top-dose-only effect; inactive = no such curve, though single readings can be large or run the other way.
Choose the fitting class; nothing outside T (active), F (inactive) is accepted.

{"molecule": "C[C@]12CCC3=C4CCC(=O)C=C4CC[C@@H]3[C@H]1CC[C@@]2(O)CC#N", "label.value": "F"}
{"molecule": "Cc1ccccc1C(=O)c1ccc(Nc2ccc(Br)cc2N)cc1Cl", "label.value": "F"}
{"molecule": "C=C1[C@H](n2cnc3c(=O)[nH]c(N)nc32)C[C@H](O)[C@H]1CO", "label.value": "F"}
{"molecule": "COc1ccc(-c2ccc3ncc4c(c3c2)n(-c2ccc(N3CCNCC3)c(C(F)(F)F)c2)c(=O)n4C)cn1", "label.value": "F"}
{"molecule": "Cc1cnc(CNC(=O)c2c(=O)c3ccc(N4CCCN(C)CC4)nc3n3c2sc2ccccc23)cn1", "label.value": "F"}
{"molecule": "CN1CC(=O)N2C(Cc3c([nH]c4ccccc34)[C@H]2c2ccc3c(c2)OCO3)C1=O (some centres not stated)", "label.value": "T"}

## Input Name the outcome recorded for CC(C)[C@H](O)C(=O)N[C@@H](C)C(=O)N[C@@H]1C(=O)N(C)CCc2ccccc21 in the assay.
## Output F

## Input Entry O=c1[nH]c(=O)n([C@H]2C[C@@H](O)[C@@H](CO)O2)cc1I please
## Output F

## Input Entry CN(C(Cc1ccc(OS(=O)(=O)c2cccc3cnccc23)cc1)C(=O)N1CCN(c2ccccc2)CC1)S(=O)(=O)c1cccc2cnccc12 (configuration not stated) please
## Output F

## Input Entry CCOC(=O)[C@H](CCc1ccccc1)N[C@@H](C)C(=O)N1CCCC1C(=O)O (some centres not stated) please
## Output F

## Input Entry CCOc1ccccc1N=Nc1c(C)[nH]n(-c2nc(-c3ccccc3)cs2)c1=O please
## Output F

Values from PubChem BioAssay (NCATS)
